experiment: Solubility in water (50 M H2O)
Assay type: physicochemical
test context: 50 M H2O (90% H2O/10% DMSO)
value type: solubility in water

CC1=CC(C)=[O+][B-](F)(F)O1 :: water-soluble
CC1=[O+][B-](F)(F)OC(C)=C1C :: water-soluble
COc1ccc(C2=CC(c3ccc(C(C)(C)C)cc3)=[O+][B-](F)(F)O2)cc1 :: insoluble
COc1cc(/C=C/C2=CC(/C=C/c3ccc(O)c(OC)c3)=[O+][B-](F)(F)O2)ccc1O :: insoluble

* * *

experiment: Optical properties (absorbance, fluorescence emission, quantum yield)
Format: physicochemical
test context: Methanol
Entries annotated with measured Quantum yield
Number in %, nothing else.

Known results for compounds:
COc1ccc(C2=CC(c3ccc(OC)cc3)=[O+][B-](F)(F)O2)cc1 :: 65.8
COc1ccc(C2=CC(c3ccc(C(C)(C)C)cc3)=[O+][B-](F)(F)O2)cc1 :: 67.3
COc1cc(/C=C/C2=CC(/C=C/c3ccc(OC(=O)CCN4C(=O)C=CC4=O)c(OC)c3)=[O+][B-](F)(F)O2)ccc1OC(=O)CCN1C(=O)C=CC1=O :: 3.1
COc1cc(/C=C/C(=O)CC(=O)/C=C/c2ccc(O)c(OC)c2)ccc1O [Curcumin, reference compound] :: 2.4
F[B-]1(F)OC(c2ccccc2)=CC(c2ccccc2)=[O+]1 :: 11.2

Problem: Any idea what Quantum yield was measured for `COc1cc(/C=C/C2=CC(/C=C/c3ccc(OC(=O)c4c(F)cc(F)cc4F)c(OC)c3)=[O+][B-](F)(F)O2)ccc1OC(=O)c1c(F)cc(F)cc1F` ?
Solution: 3.0

* * *

experiment: Solubility in water (50 M H2O)
Type: physicochemical
test context: 50 M H2O (90% H2O/10% DMSO)
value type: solubility in water

Answered examples (5):
COc1ccc(C2=CC(c3ccc(OC)cc3)=[O+][B-](F)(F)O2)cc1 :: insoluble
CCC1=C(C)O[B-](F)(F)[O+]=C1C :: water-soluble
F[B-]1(F)OC(c2ccccc2)=CC(c2ccccc2)=[O+]1 :: insoluble
CC1=CC(c2ccccc2)=[O+][B-](F)(F)O1 :: insoluble
CC1=C2CCCCC2=[O+][B-](F)(F)O1 :: water-soluble

Problem: // returns reported solubility in water for input `CCOC(=O)CCC1=C(C)O[B-](F)(F)[O+]=C1C`
Solution: water-soluble

* * *

experiment: Optical properties (absorbance, fluorescence emission, quantum yield)
Assay type: physicochemical
The threshold is 400 nm. Values of Abs beneath it are tagged satisfied; values meeting or exceeding it are tagged not satisfied.

Example entries begin here.
COc1cc(/C=C/C(=O)CC(=O)/C=C/c2ccc(O)c(OC)c2)ccc1O [Curcumin, reference compound] :: not satisfied
COc1cc(/C=C/C2=CC(/C=C/c3ccc(OC(=O)CCN4C(=O)C=CC4=O)c(OC)c3)=[O+][B-](F)(F)O2)ccc1OC(=O)CCN1C(=O)C=CC1=O :: not satisfied
COc1cc(/C=C/C2=CC(/C=C/c3ccc(OC(=O)c4c(F)cc(F)cc4F)c(OC)c3)=[O+][B-](F)(F)O2)ccc1OC(=O)c1c(F)cc(F)cc1F :: not satisfied

Problem: Given `CCOC(=O)CCC1=C(C)O[B-](F)(F)[O+]=C1C` , is recorded Abs strictly lower than 400 nm?
Solution: satisfied

Problem: is_below(Abs, 400 nm) for `F[B-]1(F)OC(c2ccccc2)=CC(c2ccccc2)=[O+]1` ?
Solution: satisfied

Problem: A record lists `CC1=C2CCCCC2=[O+][B-](F)(F)O1` . Is its Abs below 400 nm?
Solution: satisfied
